Reported inhibition is given for each of the following compounds.
# target-under-test: Mitogen-activated protein kinase kinase kinase kinase 2 (Homo sapiens) (UniProt Q12851);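 further: values given as mean percent inhibition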
# Sequence (whole entry): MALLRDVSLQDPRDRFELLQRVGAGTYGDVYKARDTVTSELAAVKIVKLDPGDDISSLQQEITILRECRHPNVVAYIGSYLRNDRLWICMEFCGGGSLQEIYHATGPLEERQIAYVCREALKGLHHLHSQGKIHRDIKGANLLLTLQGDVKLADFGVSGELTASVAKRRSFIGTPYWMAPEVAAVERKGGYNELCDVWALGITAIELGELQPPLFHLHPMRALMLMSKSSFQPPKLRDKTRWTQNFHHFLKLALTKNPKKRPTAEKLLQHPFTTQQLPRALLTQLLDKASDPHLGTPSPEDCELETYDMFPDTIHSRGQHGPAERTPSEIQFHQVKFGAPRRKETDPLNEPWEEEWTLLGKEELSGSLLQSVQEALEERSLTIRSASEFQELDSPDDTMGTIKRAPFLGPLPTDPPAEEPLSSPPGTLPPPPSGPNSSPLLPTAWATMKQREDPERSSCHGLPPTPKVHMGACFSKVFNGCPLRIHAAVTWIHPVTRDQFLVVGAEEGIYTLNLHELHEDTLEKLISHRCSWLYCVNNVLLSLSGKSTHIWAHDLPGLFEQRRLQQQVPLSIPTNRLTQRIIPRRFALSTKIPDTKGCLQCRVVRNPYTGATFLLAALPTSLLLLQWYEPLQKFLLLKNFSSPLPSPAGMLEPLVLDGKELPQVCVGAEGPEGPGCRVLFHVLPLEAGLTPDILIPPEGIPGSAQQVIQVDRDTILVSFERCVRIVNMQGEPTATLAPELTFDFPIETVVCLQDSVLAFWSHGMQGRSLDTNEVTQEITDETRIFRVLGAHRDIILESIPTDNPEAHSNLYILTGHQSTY
# test-conditions: at 0.1 µM

| query-smiles | inhibition (%) |
| --- | --- |
| CS(=O)(=O)Nc1ccc(-c2cc(-c3ccccc3)cc(C(N)=O)c2N)cc1 | -1.83 |
| Fc1cccc(COc2ccc(Nc3ncncc3C#Cc3ccccc3)cc2Cl)c1 | 0.81 |
| Cc1nnc(-c2cccc(-c3ccc(C(=O)NCC4CC4)cc3)c2)o1 | 1.46 |

###

# target-under-test: Leukocyte tyrosine kinase receptor (Homo sapiens)
# test-conditions: at 0.1 µM
# Description: GSK_PKIS: LTK mean inhibition at 0.1 uM [Nanosyn]
Classify as follows. Reported inhibition greater than or equal to 4%: satisfied. Reported inhibition below: not satisfied.

| query-smiles | assigned-label |
| --- | --- |
| COc1cccc(Nc2nccc(-c3cnn4ncccc34)n2)c1 | satisfied |
| COC(=O)Nc1nc2cc(Oc3ccc(NC(=O)Nc4ccccc4)cc3)ccc2[nH]1 | not satisfied |
| Cc1nnc(-c2cccc(-c3ccc(C(=O)NCC4CC4)cc3)c2)o1 | satisfied |
| Fc1cccc(COc2ccc(Nc3ncncc3C#Cc3ccccc3)cc2Cl)c1 | satisfied |
| COC(=O)Nc1nc2ccc(Oc3ccc(NC(=O)Nc4cc(C(F)(F)F)ccc4F)cc3)cc2s1 | not satisfied |
| FC(F)(F)CNc1nccc(-c2cnn3ncccc23)n1 | not satisfied |
| NS(=O)(=O)c1ccc(N/N=C2\C(=O)Nc3cccc(CCc4ccncc4)c32)cc1 | not satisfied |
| Fc1ccc(Nc2nccc(-c3c(-c4ccc(C(F)(F)F)cc4)nn4ncccc34)n2)cc1F | not satisfied |
| NS(=O)(=O)c1cccc(N/C=C2\C(=O)Nc3ccccc32)c1 | not satisfied |
| CS(=O)(=O)Nc1ccc(-c2cc(-c3ccccc3)cc(C(N)=O)c2N)cc1 | not satisfied |
| COc1cccc(-n2ncc3c(N/N=C/c4ccc(C(=O)NCCN(C)C)cc4)ncnc32)c1 | not satisfied |
| O=C(O[C@H]1CN[C@H](C#Cc2cc3ncnc(Nc4ccc5c(cnn5Cc5ccccc5)c4)c3s2)C1)N1CCOCC1 | not satisfied |
| Cn1c(-c2nonc2N)nc2cnccc21 | not satisfied |
| Cc1cc(O)cc(C)c1/C=C/c1cncc(C(=O)OC(C)(C)C)c1 | not satisfied |
| COc1ccc(-c2nn3ncccc3c2-c2ccnc(Nc3ccc(F)c(F)c3)n2)cc1 | satisfied |
| COc1cc(N2CCN(C(C)C)CC2)ccc1Nc1nc(Nc2cccc(F)c2C(=O)O)c2cc[nH]c2n1 | satisfied |
| Cc1ccc(-c2cc3c(NC(=O)C4CC4)ncnc3o2)cc1 | satisfied |
| COc1cc2c(cc1Nc1nc(Nc3cccc(F)c3C(N)=O)c3cc[nH]c3n1)N(C(=O)CN1CCN(C(C)C)CC1)CC2 | satisfied |
| CCCNc1cccc(-n2ncc3c(N/N=C/c4ccncc4)ncnc32)c1 | not satisfied |

###

# target-under-test: Protein-tyrosine kinase 2-beta (Homo sapiens);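 further: values are the mean percent inhibition of PYK2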
# test-conditions: at 1 µM
assay-readout: inhibition (%)

| query-smiles | recorded-result |
| --- | --- |
| NS(=O)(=O)c1ccc(N/N=C2\C(=O)Nc3ccc(C(=O)NCc4ccncc4)cc32)cc1 | 8.61 |
| Cc1cc(O)cc(C)c1/C=C/c1cncc(C(=O)OC(C)(C)C)c1 | 7.22 |
| Fc1ccc(Nc2nccc(-c3c(-c4ccc(C(F)(F)F)cc4)nn4ncccc34)n2)cc1F | 9.36 |
| CNC(=O)c1cncc(/C=C/c2ccccc2C)c1 | 5.23 |
| COc1cc(N2CCN(C(C)C)CC2)ccc1Nc1nc(Nc2cccc3ncccc23)c2cc[nH]c2n1 | 93.1 |
| CC1(C)CC(n2cnc(-c3ccc(F)cc3)c2-c2ccnc(N)n2)CC(C)(C)N1 | 3.23 |
| NS(=O)(=O)c1cccc(N/C=C2\C(=O)Nc3ccccc32)c1 | 27.4 |
| CNC(=O)c1sc(-n2cnc3cc(OC)c(OC)cc32)cc1OCc1ccccc1C(F)(F)F | 0.13 |
| CS(=O)(=O)Nc1ccc(-c2cc(-c3ccccc3)cc(C(N)=O)c2N)cc1 | 8.02 |
| CS(=O)(=O)CCNCc1ccoc1-c1ccc2ncnc(Nc3ccc(OCc4ccccc4)cc3)c2c1 | 1.57 |
| NS(=O)(=O)c1ccc(N/N=C2\C(=O)Nc3cccc(CCc4ccncc4)c32)cc1 | 20.1 |
| CS(=O)(=O)Nc1ccc(-c2ccc3c(NC(=O)C4CC4)n[nH]c3c2)cc1 | 8.59 |
| COc1ccc(Nc2ncc(-c3ccccc3)o2)cc1OC | 1.04 |
| COc1cc2c(cc1Nc1nc(Nc3cccc(F)c3C(N)=O)c3cc[nH]c3n1)N(C(=O)CN1CCN(C(C)C)CC1)CC2 | 93.4 |
| COc1ccccc1-c1cc(/C=C2\C(=O)Nc3ncc(Br)cc32)cc(Br)c1O | 39.1 |
| Cc1cc(O)cc(C)c1/C=C/c1cncc(C(N)=O)c1 | 8.75 |
| O=C1Nc2ccccc2/C1=C1\CCc2cc(O)ccc21 | 44 |
| CCCNc1cccc(-n2ncc3c(N/N=C/c4ccncc4)ncnc32)c1 | 12.2 |
| COc1cccc(-n2ncc3c(N/N=C/c4ccc(C(=O)NCCN(C)C)cc4)ncnc32)c1 | 12.1 |
| CS(=O)(=O)CCNCc1ccc(-c2ccc3ncnc(Nc4ccc(OCc5ccccc5)cc4)c3c2)o1 | 6.51 |
| O=C(O[C@H]1CN[C@H](C#Cc2cc3ncnc(Nc4ccc(OCc5cccc(F)c5)c(Cl)c4)c3s2)C1)N1CCOCC1 | 16.8 |
| N#Cc1ccc2c(-c3ccnc(NC4CC4)n3)c(-c3ccc(F)cc3)nn2c1 | 0.44 |
| COc1ccc(-c2nn3ncccc3c2-c2ccnc(Nc3ccc(F)c(F)c3)n2)cc1 | 17.9 |
| Cc1c2ccc(N(C)c3ccnc(Nc4cccc(S(N)(=O)=O)c4)n3)cc2nn1C | 39 |
| NC(=O)c1ccc2c(-c3ccnc(NCCCO)n3)c(-c3ccc(F)cc3)nn2c1 | 12.2 |

###

# Test system: Receptor-type tyrosine-protein kinase FLT3 (Homo sapiens), P36888 [D835Y]
# Sequence (whole entry): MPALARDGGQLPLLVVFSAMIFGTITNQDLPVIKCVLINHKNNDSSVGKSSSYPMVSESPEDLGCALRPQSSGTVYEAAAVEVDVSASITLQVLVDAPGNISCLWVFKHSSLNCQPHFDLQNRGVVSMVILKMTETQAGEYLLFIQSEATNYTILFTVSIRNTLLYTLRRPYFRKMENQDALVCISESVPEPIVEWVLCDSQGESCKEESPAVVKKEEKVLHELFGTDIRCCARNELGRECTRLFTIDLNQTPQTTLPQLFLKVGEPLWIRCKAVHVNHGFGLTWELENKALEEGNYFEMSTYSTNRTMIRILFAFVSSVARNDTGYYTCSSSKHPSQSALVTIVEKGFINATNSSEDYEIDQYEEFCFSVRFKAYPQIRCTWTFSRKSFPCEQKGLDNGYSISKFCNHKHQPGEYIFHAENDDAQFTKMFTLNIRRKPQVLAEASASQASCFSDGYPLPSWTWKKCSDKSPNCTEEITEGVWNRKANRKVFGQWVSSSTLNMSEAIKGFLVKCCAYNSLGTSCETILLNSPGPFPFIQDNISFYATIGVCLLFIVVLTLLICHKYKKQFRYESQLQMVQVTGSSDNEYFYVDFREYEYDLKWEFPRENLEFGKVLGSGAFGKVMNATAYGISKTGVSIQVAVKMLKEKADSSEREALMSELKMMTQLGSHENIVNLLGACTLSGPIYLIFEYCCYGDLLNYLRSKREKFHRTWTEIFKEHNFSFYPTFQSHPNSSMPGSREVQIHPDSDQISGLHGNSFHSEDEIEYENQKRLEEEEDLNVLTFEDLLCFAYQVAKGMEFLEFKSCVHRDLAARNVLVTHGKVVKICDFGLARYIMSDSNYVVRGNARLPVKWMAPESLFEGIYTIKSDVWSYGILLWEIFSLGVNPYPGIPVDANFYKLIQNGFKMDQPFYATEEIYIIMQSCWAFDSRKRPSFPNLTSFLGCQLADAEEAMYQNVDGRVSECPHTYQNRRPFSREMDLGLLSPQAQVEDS
# test-conditions: at 1 µM

| query-smiles | target-under-test | unit-of-measure | inhibition |
| --- | --- | --- | --- |
| O=C(O[C@H]1CN[C@H](C#Cc2cc3ncnc(Nc4ccc(OCc5cccc(F)c5)c(Cl)c4)c3s2)C1)N1CCOCC1 | Receptor-type tyrosine-protein kinase FLT3 (Homo sapiens), P36888 [D835Y] | % | -1.26 |
| CCn1c(-c2nonc2N)nc2cncc(C(=O)NCCNC)c21 | Receptor-type tyrosine-protein kinase FLT3 (Homo sapiens), P36888 [D835Y] | % | 3.12 |
| NS(=O)(=O)c1ccc(N/N=C2\C(=O)Nc3cccc(CCc4ccncc4)c32)cc1 | Receptor-type tyrosine-protein kinase FLT3 (Homo sapiens), P36888 [D835Y] | % | 64 |
| CNC(=O)c1cncc(/C=C/c2ccccc2C)c1 | Receptor-type tyrosine-protein kinase FLT3 (Homo sapiens), P36888 [D835Y] | % | 2.62 |
| COc1cccc(-n2ncc3c(N/N=C/c4ccc(C(=O)NCCN(C)C)cc4)ncnc32)c1 | Receptor-type tyrosine-protein kinase FLT3 (Homo sapiens), P36888 [D835Y] | % | 76 |

Hey, just so you know, these numbers are from ChEMBL document CHEMBL1961873.
